- MEASURED_TARGET: CRF1R; further: reference of the scale not given here
- ASSAY_TEXT: cell-based or functional assay
Ends that are not written are not given here.
Entries are grouped by CRF1R Emax % into these classes: lower level: < 30%; middle level: ≥ 30% and < 70%; upper level: ≥ 70%

{"BINDER": "ZGPPISIDLPLQLLRKVIEIEKQEKEKQQAANNALLLATI (C-terminal amide) [SEQ ID NO 349]", "CLASS_LABEL": "middle level"}
{"BINDER": "ZGPPISIDLPFQLLRKTIEIEKQEKEKQQATTNARLLDRV (C-terminal amide) [SEQ ID NO 321]", "CLASS_LABEL": "middle level"}
{"BINDER": "ZGPPISIDLPLYLLRKMIEIEKQEKEKQQAANNALLLDTI (C-terminal amide) [SEQ ID NO 244]", "CLASS_LABEL": "upper level"}
{"BINDER": "DNPSLSIDVPLFLLRTLLELEKTQSQRERAEQNARIFARV-NH2 [SEQ ID NO 385]", "CLASS_LABEL": "middle level"}
{"BINDER": "ZGPPISIDLPYHLLRKMIEIEKQEKEKQQAANNALLLDTI (C-terminal amide) [SEQ ID NO 314]", "CLASS_LABEL": "upper level"}

Ask | Tag the class for PSLSIDLPLFLLRTLLELEKTQSQRERAEQNARIFARV-NH2 [SEQ ID NO 331]
Reply | upper level

Ask | Tag the class for IVLSLDVPIHLLQILLEQARARAAREQATTNARILARV-NH2 [SEQ ID NO 371]
Reply | lower level

Ask | Tag the class for ZGPPISIDVPTYLLRKMIEIEKQEKEKQQAANNRLLLDTI (C-terminal amide) [SEQ ID NO 253]
Reply | middle level

Ask | Tag the class for ZGPPISIDVPYYLLRKVIEIEKQEKEKQQAANNARLLARI (C-terminal amide) [SEQ ID NO 378]
Reply | middle level

Ask | Tag the class for ZGPPISIDLPIFLLRKVIEIEKQEKEKQQAANNALLLATI (not fully specified; C-terminal amide) [SEQ ID NO 280]
Reply | lower level

Origin of measurements: patent US20030148958A1
